# tested-system: hERG channel (Homo sapiens)
# Construct: expressed in transfected cells; host or cells: CHO (Chinese hamster ovary)
# protocol-details: hERG channel inhibition assay (patch-clamp, CHO hERG cells)
# Type: cell-based
# particulars: safety ratio; TLR7 IC50 of ER compounds from Table 1
test-readout: hERG IC20 / TLR7 IC50
Answer with a number only.

These solved cases illustrate the format of a correct answer.
                                   molecule                tested_system  value_observed
0  COc1ccc(N2CCN(C[C@H]3CN(c4ccc(C#N)c5ncccc45)C[C@@H](C)O3)CC2)cc1 [Example R1, reference compound]  hERG channel (Homo sapiens)             9.3
1  C[C@@H]1CN(c2ccc(C#N)c3ncccc23)C[C@H](CN2CCN(c3ccc4c(n3)CNCC4)CC2)O1 [Example 69]  hERG channel (Homo sapiens)           697.4

Now let's try a different one.
Hi! What's the reported hERG IC20 / TLR7 IC50 for C[C@@H]1CN(c2ccc(C#N)c3ncccc23)C[C@H](CN2CCN(c3ccc4c(n3)CCNC4)CC2)O1 [Example 14] on hERG channel (Homo sapiens)? 673.7

----------
Quick list: IC20 per entry.
# tested-system: hERG channel (Homo sapiens, UniProt Q12809)
# Construct: expressed in transfected cells; host or cells: CHO (Chinese hamster ovary)
# Sequence (Q12809 whole entry): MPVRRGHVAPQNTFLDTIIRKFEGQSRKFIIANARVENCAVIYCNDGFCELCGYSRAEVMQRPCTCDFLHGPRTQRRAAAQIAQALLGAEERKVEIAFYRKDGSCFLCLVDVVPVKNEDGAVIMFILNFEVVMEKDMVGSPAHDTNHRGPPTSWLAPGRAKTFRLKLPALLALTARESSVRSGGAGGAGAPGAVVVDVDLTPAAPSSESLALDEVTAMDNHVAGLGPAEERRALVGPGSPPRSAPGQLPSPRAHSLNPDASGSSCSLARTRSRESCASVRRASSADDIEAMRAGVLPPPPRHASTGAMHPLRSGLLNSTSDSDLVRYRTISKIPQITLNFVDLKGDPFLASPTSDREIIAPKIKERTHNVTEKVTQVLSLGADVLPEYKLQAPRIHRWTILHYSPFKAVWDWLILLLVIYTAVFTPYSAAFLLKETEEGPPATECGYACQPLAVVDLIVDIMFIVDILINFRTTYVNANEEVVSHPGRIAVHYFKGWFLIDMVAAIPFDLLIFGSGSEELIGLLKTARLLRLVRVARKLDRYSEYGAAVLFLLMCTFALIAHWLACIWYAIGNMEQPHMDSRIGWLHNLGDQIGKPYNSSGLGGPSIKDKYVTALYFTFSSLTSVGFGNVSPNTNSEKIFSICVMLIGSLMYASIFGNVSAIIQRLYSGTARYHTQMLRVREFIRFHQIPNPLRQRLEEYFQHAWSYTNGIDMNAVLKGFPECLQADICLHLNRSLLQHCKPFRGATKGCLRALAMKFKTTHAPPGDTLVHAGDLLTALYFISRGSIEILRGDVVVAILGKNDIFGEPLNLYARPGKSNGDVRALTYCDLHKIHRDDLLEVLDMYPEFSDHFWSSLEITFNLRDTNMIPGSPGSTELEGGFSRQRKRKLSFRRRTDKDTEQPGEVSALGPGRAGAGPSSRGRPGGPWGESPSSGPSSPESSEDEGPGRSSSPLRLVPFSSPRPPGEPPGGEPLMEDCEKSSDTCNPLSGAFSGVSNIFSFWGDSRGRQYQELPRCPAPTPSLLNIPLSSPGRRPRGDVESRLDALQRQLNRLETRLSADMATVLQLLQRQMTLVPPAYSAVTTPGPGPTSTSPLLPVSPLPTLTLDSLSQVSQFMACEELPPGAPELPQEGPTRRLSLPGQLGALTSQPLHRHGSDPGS
# protocol-details: hERG channel inhibition assay (patch-clamp, CHO hERG cells)
# Type: cell-based
# particulars: human, CHO cells stably expressing hERG; CHO hERG cells, whole-cell patch-clamp

These solved cases illustrate the format of a correct answer.
>>> print(df.to_string())
                                   compound  value_observed
0  C[C@@H]1CN(c2ccc(C#N)c3ncsc23)C[C@H](CN2CCN(c3cnc4c(c3)CNC4)CC2)O1         > 10 µM
1  C[C@@H]1CN(c2ccc(C#N)c3ncccc23)C[C@H](CN2CCN(c3ccc4c(c3)CNCC4)CC2)O1         6.16 µM
2  C[C@@H]1CN(c2ccc(C#N)c3ncccc23)C[C@H](CN2CCN(c3ccc4c(c3)C(O)CNC4)CC2)O1 (stereo partly shown)         > 10 µM

Fill blank: measured IC20 of the compound C[C@@H]1CN(c2ccc(C#N)c3ncccc23)C[C@H](CN2CCN(c3cc4c(cn3)CCN[C@@H]4C)CC2)O1 (single isomer, unassigned) is ____. > 10 µM

Fill blank: measured IC20 of the compound C[C@@H]1CN(c2ccc(C#N)c3ncccc23)C[C@H](CN2CCN(c3ccccc3)CC2)O1 [ER-887258, reference compound] is ____. 0.687 µM

Fill blank: measured IC20 of the compound C[C@@H]1CN(c2ccc(C#N)c3ncccc23)C[C@H](CN2CCN(c3ccc(Cl)cc3)CC2)O1 [Example R2, reference compound] is ____. 0.28 µM

Fill blank: measured IC20 of the compound C[C@@H]1Cc2cnc(N3CCN(C[C@H]4CN(c5ccc(C#N)c6ncccc56)C[C@@H](C)O4)CC3)cc2CN1 (single isomer, unassigned) is ____. > 10 µM

Fill blank: measured IC20 of the compound C[C@@H]1CN(c2ccc(C#N)c3ncccc23)C[C@H](CN2CCN(c3ccc4c(c3)CNC4)CC2)O1 is ____. 5.74 µM

Fill blank: measured IC20 of the compound C[C@@H]1CN(c2ccc(C#N)c3nccnc23)C[C@H](CN2CCN(c3cnc4c(c3)CNC4)CC2)O1 is ____. > 10 µM

Fill blank: measured IC20 of the compound C[C@@H]1CN(c2ccc(C#N)c3ncccc23)C[C@H](CN2CCN(c3cc4c(cn3)CNCC4)CC2)O1 is ____. > 10 µM

Fill blank: measured IC20 of the compound C[C@@H]1CN(c2ccc(C#N)c3ncccc23)C[C@H](CN2CCN(c3cnc4c(c3)CNCC4)CC2)O1 is ____. > 10 µM

Fill blank: measured IC20 of the compound C[C@@H]1CN(c2ccc(C#N)c3ncccc23)C[C@H](CN2CCN(c3ccc4c(n3)CNC4)CC2)O1 is ____. > 10 µM

Fill blank: measured IC20 of the compound C[C@@H]1CN(c2ccc(C#N)c3ncccc23)C[C@H](CN2CCN(c3cc4c(cn3)C[C@H](C)NC4)CC2)O1 (single isomer, unassigned) is ____. > 10 µM

----------
# tested-system: human TLR8 (Homo sapiens)
# Sequence (Q9NR97 27-1041): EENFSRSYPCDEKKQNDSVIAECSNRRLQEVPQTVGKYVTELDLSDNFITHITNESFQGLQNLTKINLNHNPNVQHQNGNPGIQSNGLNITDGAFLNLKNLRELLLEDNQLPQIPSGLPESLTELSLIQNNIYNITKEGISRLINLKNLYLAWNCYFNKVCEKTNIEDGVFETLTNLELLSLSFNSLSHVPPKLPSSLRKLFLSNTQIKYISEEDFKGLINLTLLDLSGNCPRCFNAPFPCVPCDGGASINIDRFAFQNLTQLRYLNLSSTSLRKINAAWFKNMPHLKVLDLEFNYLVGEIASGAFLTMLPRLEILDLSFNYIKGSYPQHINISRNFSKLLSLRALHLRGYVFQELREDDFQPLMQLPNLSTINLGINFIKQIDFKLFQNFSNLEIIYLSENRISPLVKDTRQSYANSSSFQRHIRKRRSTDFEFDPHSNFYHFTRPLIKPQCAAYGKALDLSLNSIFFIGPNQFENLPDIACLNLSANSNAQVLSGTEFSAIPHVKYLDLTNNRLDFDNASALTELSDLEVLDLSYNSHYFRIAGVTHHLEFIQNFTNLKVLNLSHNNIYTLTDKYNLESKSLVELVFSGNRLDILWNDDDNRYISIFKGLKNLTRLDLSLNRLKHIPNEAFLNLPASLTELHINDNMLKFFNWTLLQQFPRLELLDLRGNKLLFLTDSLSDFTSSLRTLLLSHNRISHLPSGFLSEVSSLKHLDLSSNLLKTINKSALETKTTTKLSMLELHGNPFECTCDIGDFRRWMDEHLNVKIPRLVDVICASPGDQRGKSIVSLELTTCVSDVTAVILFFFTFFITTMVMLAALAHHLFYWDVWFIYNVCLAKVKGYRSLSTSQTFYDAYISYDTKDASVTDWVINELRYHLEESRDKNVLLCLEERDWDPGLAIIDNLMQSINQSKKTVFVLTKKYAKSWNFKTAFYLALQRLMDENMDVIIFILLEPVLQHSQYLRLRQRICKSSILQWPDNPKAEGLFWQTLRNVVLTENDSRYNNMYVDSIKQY
# protocol-details: HEK293-Blue-hTLR-8 cells assay (SEAP reporter, R848 stimulation)
# particulars: HEK293-Blue-hTLR8 cells, R848, 20 hrs; read-out: HEK/hTLR8 IC50
pIC50: −log10 of the molar value.
Mark 1 for reported pIC50 of 8 or greater; mark 0 for anything smaller.

>>> print(df.to_string())
                                   molecule  assigned_label
0  C[C@@H]1CN(c2ccc(C#N)c3ncccc23)C[C@H](CN2CCN(c3ccc4c(c3)CCNC4)CC2)O1               0
1  C[C@@H]1CN(c2ccc(C#N)c3ncccc23)C[C@H](CN2CCN(c3ccc(Cl)cc3)CC2)O1 [Example R2, reference compound]               0
2  C[C@@H]1CN(c2ccc(C#N)c3ncccc23)C[C@H](CN2CCN(c3cc4c(cn3)CCN[C@H]4C)CC2)O1 (single isomer, unassigned)               1
3  C[C@@H]1CN(c2ccc(C#N)c3ncccc23)C[C@H](CN2CCN(c3cc4c(cn3)C[C@H](C)NC4)CC2)O1 (single isomer, unassigned)               1
4  C[C@@H]1CN(c2ccc(C#N)c3ncccc23)C[C@H](CN2CCC(Nc3ncc4c(n3)CNC4)C2)O1 (stereo partly shown)               0

Please check the record C[C@@H]1CN(c2ccc(C#N)c3nccnc23)C[C@H](CN2CCN(c3ccc4c(n3)CN[C@H]4C)CC2)O1 (single isomer, unassigned) and state if its pIC50 is at or above 8. 1

Please check the record C[C@@H]1CN(c2ccc(C#N)c3ncccc23)C[C@H](CN2CCN(c3ccc4c(c3)C(O)CNC4)CC2)O1 (stereo partly shown) and state if its pIC50 is at or above 8. 0

Please check the record COc1ccc(N2CCN(C[C@H]3CN(c4ccc(C#N)c5ncccc45)C[C@@H](C)O3)CC2)cc1 [Example R1, reference compound] and state if its pIC50 is at or above 8. 0

Please check the record C[C@@H]1CN(c2ccc(C#N)c3ncccc23)C[C@H](CN2CCC(Nc3ccc4c(c3)CNC4)C2)O1 (stereo partly shown) and state if its pIC50 is at or above 8. 0

Please check the record C[C@@H]1CN(c2ccc(C#N)c3ncccc23)C[C@H](CN2CCN(c3cc4c(cn3)CCN[C@@H]4C)CC2)O1 (single isomer, unassigned) and state if its pIC50 is at or above 8. 1

Please check the record C[C@@H]1CN(c2ccc(C#N)c3ncccc23)C[C@H](CN2CCN(c3cc4c(cn3)CNCC4)CC2)O1 and state if its pIC50 is at or above 8. 1

Please check the record [2H]c1nc2c(C#N)ccc(N3C[C@H](CN4CCN(c5ccc6c(n5)CN[C@H]6C)CC4)O[C@H](C)C3)c2nc1[2H] (single isomer, unassigned) and state if its pIC50 is at or above 8. 1

Please check the record C[C@@H]1CN(c2ccc(C#N)c3ncccc23)C[C@H](CN2CC3(C2)CN(c2cnc4c(c2)CNCC4)CCO3)O1 and state if its pIC50 is at or above 8. 0

Please check the record C[C@@H]1CN(c2ccc(C#N)c3ncccc23)C[C@H](CN2C[C@@H]3[C@@H](C2)OCCN3c2cnc3c(c2)CCNC3)O1 and state if its pIC50 is at or above 8. 0

Please check the record C[C@@H]1CN(c2ccc(C#N)c3ncccc23)C[C@H](CN2CCN(c3ccc4c(n3)CCNC4)C[C@H](O)C2)O1 (single isomer, unassigned) [Example 35A] and state if its pIC50 is at or above 8. 0

Please check the record C[C@@H]1CN(c2ccc(C#N)c3ncccc23)C[C@H](CN2CCN(c3ccc4c(c3)CCNC4CO)CC2)O1 (stereo partly shown) and state if its pIC50 is at or above 8. 0

Please check the record C[C@@H]1CN(c2ccc(C#N)n3ncc(F)c23)C[C@H](CN2CCN(c3cnc4c(c3)CNC4)CC2)O1 and state if its pIC50 is at or above 8. 0

Please check the record [2H]c1nc2c(C#N)ccc(N3C[C@H](CN4CCN(c5cc6c(cn5)[C@@H](C)NCC6)CC4)O[C@H](C)C3)c2nc1[2H] (single isomer, unassigned) and state if its pIC50 is at or above 8. 1

----------
# tested-system: hTLR7 (Homo sapiens, UniProt Q9NYK1)
# Sequence (Q9NYK1 27-1049): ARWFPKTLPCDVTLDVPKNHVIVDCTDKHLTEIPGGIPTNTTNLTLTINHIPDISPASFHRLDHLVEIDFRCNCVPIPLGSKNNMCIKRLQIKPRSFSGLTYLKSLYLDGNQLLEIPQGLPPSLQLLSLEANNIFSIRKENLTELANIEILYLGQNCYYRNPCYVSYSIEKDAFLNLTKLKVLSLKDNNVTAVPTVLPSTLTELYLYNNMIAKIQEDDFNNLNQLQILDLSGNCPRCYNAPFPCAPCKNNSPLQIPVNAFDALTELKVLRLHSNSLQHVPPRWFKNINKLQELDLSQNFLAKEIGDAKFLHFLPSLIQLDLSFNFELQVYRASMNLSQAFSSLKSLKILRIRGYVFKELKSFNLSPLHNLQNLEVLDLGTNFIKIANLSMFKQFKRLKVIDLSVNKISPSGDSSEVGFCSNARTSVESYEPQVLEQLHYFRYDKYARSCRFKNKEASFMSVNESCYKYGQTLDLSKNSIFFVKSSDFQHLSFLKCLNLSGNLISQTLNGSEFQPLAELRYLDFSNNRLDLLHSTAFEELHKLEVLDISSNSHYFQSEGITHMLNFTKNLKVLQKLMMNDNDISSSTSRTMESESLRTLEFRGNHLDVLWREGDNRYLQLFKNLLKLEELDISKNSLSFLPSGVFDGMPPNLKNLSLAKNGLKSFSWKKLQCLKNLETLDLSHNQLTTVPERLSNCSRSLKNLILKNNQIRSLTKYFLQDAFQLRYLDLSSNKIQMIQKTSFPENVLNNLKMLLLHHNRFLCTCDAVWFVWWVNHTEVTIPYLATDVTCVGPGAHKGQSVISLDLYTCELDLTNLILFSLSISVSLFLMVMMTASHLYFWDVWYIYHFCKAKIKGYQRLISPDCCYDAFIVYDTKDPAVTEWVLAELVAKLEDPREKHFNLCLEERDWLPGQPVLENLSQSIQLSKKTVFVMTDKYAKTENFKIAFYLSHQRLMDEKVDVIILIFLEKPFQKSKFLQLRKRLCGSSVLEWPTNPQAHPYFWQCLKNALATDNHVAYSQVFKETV
# protocol-details: HEK293-Blue-hTLR-7 cells assay (SEAP reporter, R848 stimulation)
# Assay type: cell-based
# Set-up: host or cells: HEK293 (HEK-Blue)
# particulars: HEK293-Blue-hTLR7 cells, R848, 20 hrs; read-out: HEK/hTLR7 IC50
# Experimental: A stable HEK293-Blue-hTLR-7 cell line was purchased from InvivoGen (Cat.#: hkb-htlr7, San Diego, California, USA). These cells were originally designed for studying the stimulation of human TLR7 by monitoring the activation of NF-κB. […] The cell culture supernatant SEAP reporter activity was determined using QUANTI-Blue™ kit (Cat.#: rep-qb1, Invivogen, San Diego, Ca, USA) at a wavelength of 640 nm, a detection medium that turns purple or blue in the presence of alkaline phosphatase. […]
test-readout: IC50 (nM)
Number only, in nM; omit the unit.

>>> df
                                   compound  scale_unit  value_observed
0  C[C@@H]1CN(c2ccc(C#N)c3ncccc23)C[C@H](CN2C[C@H]3CN(c4ccc5c(n4)CCNC5)CC[C@H]32)O1 (single isomer, unassigned)          nM               4

Now let's try a different one.
Fill blank: measured IC50 of the compound C[C@@H]1CN(c2ccc(C#N)c3ncccc23)C[C@H](CN2CCN(c3ccc4c(n3)CCN(C)C4)CC2)O1 is ____. 18
